- Tgt: NKp30 on human NK cells (human) (UniProt O14931)
- Sequence (O14931 19-201): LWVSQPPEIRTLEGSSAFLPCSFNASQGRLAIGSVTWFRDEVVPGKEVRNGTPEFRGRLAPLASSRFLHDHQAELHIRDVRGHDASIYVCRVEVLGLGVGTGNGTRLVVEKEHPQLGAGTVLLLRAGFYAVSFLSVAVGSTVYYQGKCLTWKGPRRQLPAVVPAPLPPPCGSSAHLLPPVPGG
- Assay Summary: cell-based or functional assay
binders and their reported Max. Killing (% Lysis), MNC based killing of A431 cells, E:T 80:1
The answer consists of two parts: a number and, after it, its unit.

Consider the worked cases shown below.
Input line: Please report the measured Max. Killing (% Lysis), MNC based killing of A431 cells, E:T 80:1 for VHH3 SEEDbody eff- (bispecific antibody, part only; not given: silenced SEED Fc and cetuximab Fab, V domains shown, not shown: another chain or arm of the molecule; a dimerising Fc or GST; small tags and cut ends) VHH: DVQLQESGGGLVQPGESLKLSCLVSGVTYHFYDITWFRQAPGLEREGVSCISYASGTTKFADSVKGRFTISRDNAKNAVYLEMNSLKPEDTAVYFCATQGSGSCSDFMSAGSVLSWGQGTQVTVSS
Output line: 53 % Lysis

Input line: Please report the measured Max. Killing (% Lysis), MNC based killing of A431 cells, E:T 80:1 for VHH11 SEEDbody eff- (bispecific antibody, part only; not given: silenced SEED Fc and cetuximab Fab, V domains shown, not shown: another chain or arm of the molecule; a dimerising Fc or GST; small tags and cut ends) VHH: DVQLQESGGGLVQAGGSLRLSCAASGRTFSSDFMGWFRQAPGKEREFVAAIHWSGGSTSYADSVKGRFTISRDNAKDTVYLLMNSLKLEDTAVYYCAAEIRWLTTGWANLGSWGQGTQVTVSS
Output line: 50 % Lysis

Input line: Please report the measured Max. Killing (% Lysis), MNC based killing of A431 cells, E:T 80:1 for VHH1 SEEDbody eff- (bispecific antibody, part only; not given: silenced SEED Fc and cetuximab Fab, V domains shown, not shown: another chain or arm of the molecule; a dimerising Fc or GST; small tags and cut ends) VHH: DVQLQESGGGLVQPGGSLRLSCATSGFTLDDYTIGWVRQAPGKEHEGVSCFSPSDGTTYYADSVKGRFTFSRDNAKNTVYLQMNSLKPEDTAVYYCAASFADGSSWCYDYWGQGTQVTVSS
Output line: 53 % Lysis

Input line: Please report the measured Max. Killing (% Lysis), MNC based killing of A431 cells, E:T 80:1 for VHH13 SEEDbody eff- (bispecific antibody, part only; not given: silenced SEED Fc and cetuximab Fab, V domains shown, not shown: another chain or arm of the molecule; a dimerising Fc or GST; small tags and cut ends) VHH: DVQLQESGGGLAQPGGPLRLSCAASGRTFTSDFMGWFRQAPGKEREFVAAIHWSGGSRSYADSVKGRFTISRDNAKDTVYLLMNSLKLEDTAVYYCAAEIRWQTAGWVNLGSWGQGTQVTVSS
Output line: 51 % Lysis

Input line: Please report the measured Max. Killing (% Lysis), MNC based killing of A431 cells, E:T 80:1 for VHH10 SEEDbody eff- (bispecific antibody, part only; not given: silenced SEED Fc and cetuximab Fab, V domains shown, not shown: another chain or arm of the molecule; a dimerising Fc or GST; small tags and cut ends) VHH: DVQLQESGGGSVQAGGSLRLSCAASGRTFSSNFMGWFRQAPNKDREFVAAIHWSGGSRAYADSVKGRFTISRDNTKDTVYLLVNSLKLEDTAVYYCAAEISWQTTGWTNLGSWGQGTQVTVSS
Output line: 51 % Lysis

Next:
Input line: Please report the measured Max. Killing (% Lysis), MNC based killing of A431 cells, E:T 80:1 for VHH16 SEEDbody eff- (bispecific antibody, part only; not given: silenced SEED Fc and cetuximab Fab, V domains shown, not shown: another chain or arm of the molecule; a dimerising Fc or GST; small tags and cut ends) VHH: DVQLQESGGGLVQPGGSLRLSCTASGSIFSSLTMAWWRQAPGKQRELVAGITTDGSTDYADSVKGRFTISRDNAKNTVYLQMDSLKPEDTAVYYCNKSPYYDPTDYDSWGQGTQVTVSS
Output line: 50 % Lysis

Input line: Please report the measured Max. Killing (% Lysis), MNC based killing of A431 cells, E:T 80:1 for VHH12 SEEDbody eff- (bispecific antibody, part only; not given: silenced SEED Fc and cetuximab Fab, V domains shown, not shown: another chain or arm of the molecule; a dimerising Fc or GST; small tags and cut ends) VHH: DVQLQESGGGLVQAGGSLRLSCAASGRTFSSDFMGWFRQAPGKEREFVAAIHWSGGSRSYADSVKGRFTISRDNAKDTVYLLMNSLKLEDTAVYYCAAEIRWQTTGWANLGSWGQGTQVTVSS
Output line: 49 % Lysis

Input line: Please report the measured Max. Killing (% Lysis), MNC based killing of A431 cells, E:T 80:1 for VHH14 SEEDbody eff- (bispecific antibody, part only; not given: silenced SEED Fc and cetuximab Fab, V domains shown, not shown: another chain or arm of the molecule; a dimerising Fc or GST; small tags and cut ends) VHH: DVQLQESGGGLVQPGGSLRLSCEASGVTFNFYSMTWYRQAPGKERELVADITSEGRTEYAHSVKGRFIISRDDFGTMVYLQMNSLKPEDTAVYYCYTGGSWGQGTQVTVSS
Output line: 51 % Lysis
